Protocol Summary: folding stability dG unfold from chymotrypsin proteolysis; higher = more stable
Recorded folding stability dG unfold, one value per entry.
// note: answer is a bare numeric in kcal/mol

Example entries begin here.
| Ordered Residues | folding stability dG unfold (kcal/mol) |
| --- | --- |
| SAGGKFDIMVKVEPPDGKEEELPIKFDSPEEIIEEARAIAEQHGPGDKLKVEIYYPGTGRPIEFEIPSAGGS [r8_107_TrROS] | -0.17 |
| SAGGSAGGSAGGPPSVPITITLIILFPDGYFIVIELTIEVPPDGEIEIKIKILHIFPVKSAGGSAGGSAGGS [r10_1139_TrROS] | 3.76 |
| SAGMPLPVKLVSFEPGANTLTIDRPYTNGPVTLSPDGTLTITGTLRDENGKPLETFTETIPVNWPEGTRSAG [r5_475_JUSTAS] | -0.24 |
| SMEEAIEEAIKKNEEAIAAGGGPVKVELEVPGYRIDLTFSPNGLKITNIEEKNSPDGIPSVKSTSDVPPPSA [r9_308_JUSTAS] | -0.503 |
| SAGGMKIIEIEYDEETGKYKFKIKIYDKKTGKLYEIEVEVDKKTGKLSIEEIAKKIAEKLGLPKDIKISAGG [r13_362_TrROS_Hall] | 4.03 |

Find the recorded folding stability dG unfold belonging to SAMKITDVTVERNPDNGWYEVMVTFEFDNGPVTVKIWMPRDGNMPIDVYDMGNGEPKGEIWIPADQIKFSAG [r14_608_TrROS] and report it.
1.35

Find the recorded folding stability dG unfold belonging to SAMKKPPKTLTLVIVVKVPEEEMTEEQLEELARELAEALAPPGEKVEVKVEVERLPDGTVVVKIEIKLESAG [r14_389_TrROS_Hall] and report it.
1.98
